Test system: MS2 coat protein
Assay: apparent KD of MS2 coat protein; designed switch direction (-1 OFF switch, 1 ON switch): 1; higher = weaker reporter binding
Conditions: input ligand: FMN 200 uM
// n strictly below 50 nM in apparent KD of MS2 coat protein; y otherwise

>>> class_name("AACAGUCGACGAGGAUAUGGACGGACAGGUUUGCCUGUGCGGCUCACAUGAGGAUCACCCAUGUUCUAGAAGGCGUCACUGUGA [Matidia] (Eterna round: R96, puzzle: Same State NG 2)")
"n"

Q. Check the entry AAGAAAUCCGCAGGAUAUCCUAAGCCGGGCUUAGGAGAAGGGUGGCCACAUGAGGAUCACCCAUGUAAAGGCUGAAUCACAGCC [Disois] (Eterna round: R96, puzzle: Same State NG 1) : does apparent KD of MS2 coat protein equal or exceed 50 nM?
A. y

Q. Is apparent KD of MS2 coat protein at least 50 nM? Consider AGCUAUUAAUCAGGAUAUGGUCACAUGAGGAUCACCCAUGUGUAGAUGAUAAAAUGUGGUCAACACUAGAAGGGAUUGCUAACA [SameState NG2 #61] (Eterna round: R96, puzzle: Same State NG 2)
A. n

Q. Is apparent KD of MS2 coat protein at least 50 nM? Consider GUGGUCAGACAUGAGGAUCACCCAUGUGGAAUAAAUAACAGACAGGAUAUUUAAUAUAGGAUAUAAAAGAAGGGUCGAUUGGUG (Eterna round: R96, puzzle: Same State NG 3)
A. y
